The following compounds are shown together with reported pKi values.
- testedOn: human NEP (Homo sapiens)
- Construct: 1182-ZN
- Sequence (P08473 52-750 limits assumed): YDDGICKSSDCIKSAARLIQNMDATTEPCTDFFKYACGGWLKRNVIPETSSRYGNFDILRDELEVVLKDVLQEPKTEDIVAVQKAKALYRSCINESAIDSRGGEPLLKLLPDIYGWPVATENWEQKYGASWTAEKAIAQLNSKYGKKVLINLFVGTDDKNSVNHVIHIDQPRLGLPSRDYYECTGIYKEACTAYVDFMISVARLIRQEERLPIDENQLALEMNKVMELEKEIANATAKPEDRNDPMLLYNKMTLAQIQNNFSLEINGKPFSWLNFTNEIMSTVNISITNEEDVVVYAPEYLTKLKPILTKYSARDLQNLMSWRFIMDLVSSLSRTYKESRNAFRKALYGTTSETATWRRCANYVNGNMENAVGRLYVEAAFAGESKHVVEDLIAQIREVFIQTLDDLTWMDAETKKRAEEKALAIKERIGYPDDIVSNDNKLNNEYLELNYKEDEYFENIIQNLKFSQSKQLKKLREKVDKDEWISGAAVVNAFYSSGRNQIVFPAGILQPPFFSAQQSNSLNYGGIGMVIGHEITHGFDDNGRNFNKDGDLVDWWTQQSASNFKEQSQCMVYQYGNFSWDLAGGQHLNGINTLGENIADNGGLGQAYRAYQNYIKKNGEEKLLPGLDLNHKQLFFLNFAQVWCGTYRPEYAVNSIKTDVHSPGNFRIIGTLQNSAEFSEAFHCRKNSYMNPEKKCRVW
- assayProtocol: In vitro enzyme inhibition assay, inhibitor potency at human NEP
- conditionSet: recombinant human NEP, fluorogenic peptide substrate 10 μM, 37° C.; values given as ranges
pKi: −log10 of the molar value.

See these solved cases before continuing.
INSERT INTO assay_data (compound, metricname, testvalue) VALUES
  ('C[C@@](CN)(C[C@@H](Cc1ccc(-c2cc(Cl)ccc2F)cc1)NC(=O)c1ccn(C(F)F)n1)C(=O)O', 'pKi', '8.50 to 8.90'),
  ('COC[C@](C)(C[C@@H](Cc1ccc(-c2cc(Cl)ccc2F)cc1)NC(=O)c1ccc(Cl)cn1)C(=O)O', 'pKi', '8.50 to 8.90'),
  ('C[C@](C[C@@H](Cc1ccc(-c2cc(Cl)ccc2F)cc1)NC(=O)c1c[nH]nn1)(C(N)=O)C(=O)O', 'pKi', '≥ 9.00'),
  ('CCOC[C@](C)(C[C@@H](Cc1ccc(-c2cc(Cl)ccc2F)cc1)NC(=O)c1coc(C2CC2)n1)C(=O)O', 'pKi', '8.50 to 8.90'),
  ('CC(=O)c1cc(C(=O)N[C@H](Cc2ccc(-c3cc(Cl)ccc3F)cc2)C[C@@](C)(CN)C(=O)O)[nH]n1', 'pKi', '8.00 to 8.40');

Response field pKi (human NEP (Homo sapiens)) for item CCC(C#N)(C[C@@H](Cc1ccc(-c2cc(Cl)ccc2F)cc1)NC(=O)c1cnn[nH]1)C(=O)O (single isomer, unassigned) [Example 23b] : 6.50 to 6.90

Response field pKi (human NEP (Homo sapiens)) for item CC(=O)NCCC(CO)(C[C@@H](Cc1ccc(-c2cc(Cl)ccc2F)cc1)NC(=O)c1cnn[nH]1)C(=O)O (stereo partly shown) : ≥ 9.00

====

The following molecules are shown together with reported pKi values.
- testedOn: human NEP (Homo sapiens)
- Construct: purchased R&D Systems, Minneapolis, Minn; 1182-ZN
- assayProtocol: In vitro enzyme inhibition assay, inhibitor potency at human NEP
- Type: biochemical
- conditionSet: recombinant human NEP, fluorogenic peptide substrate 10 μM, 37° C.; values given as ranges
pKi: −log10 of the molar value.

See these solved cases before continuing.
INSERT INTO assay_data (molecule, testvalue) VALUES
  ('COC[C@](C)(C[C@@H](Cc1ccc(-c2cc(Cl)ccc2F)cc1)NC(=O)c1nc[nH]n1)C(=O)O [Example 8-7]', '8.50 to 8.90'),
  ('CC(N)(C[C@@H](Cc1ccc(-c2cc(Cl)ccc2F)cc1)NC(=O)c1cnn[nH]1)C(=O)O (single isomer, unassigned) [Example 1a]', '8.00 to 8.40'),
  ('CCCC(CO)(C[C@@H](Cc1ccc(-c2cc(Cl)ccc2F)cc1)NC(=O)c1cnn[nH]1)C(=O)O (single isomer, unassigned) [Example 15a]', '≥ 9.00'),
  ('COC[C@](C)(C[C@@H](Cc1ccc(-c2cc(Cl)ccc2F)cc1)NC(=O)c1cn(CCO)nn1)C(=O)O [Example 8-10]', '8.50 to 8.90');

Now consider a different molecule.
Quick note, pKi for COC[C@](C)(C[C@@H](Cc1ccc(-c2cc(Cl)ccc2F)cc1)NC(=O)c1ccc(C(F)(F)F)cn1)C(=O)O [Example 8-5] landed at ≥ 9.00

====

The following molecules are shown together with reported Ki values.
- testedOn: human NEP (Homo sapiens)
- Construct: 1182-ZN
- assayProtocol: In vitro enzyme inhibition assay, inhibitor potency at human NEP
- conditionSet: recombinant human NEP, fluorogenic peptide substrate 10 μM, 37° C.; values given as ranges

See these solved cases before continuing.
INSERT INTO measurements (molecule, testedon, testvalue) VALUES
  ('O=C(N[C@H](Cc1ccc(-c2cc(Cl)ccc2F)cc1)CC(CO)(CCO)C(=O)O)c1cnn[nH]1 (single isomer, unassigned) [Example 16a]', 'human NEP (Homo sapiens)', '1.26 to 3.16 nM'),
  ('C=CCC(CO)(C[C@@H](Cc1ccc(-c2cc(Cl)ccc2F)cc1)NC(=O)c1cnn[nH]1)C(=O)O (single isomer, unassigned) [Example 19a]', 'human NEP (Homo sapiens)', '≤ 1 nM'),
  ('CC(C#N)(C[C@@H](Cc1ccc(-c2cc(Cl)ccc2F)cc1)NC(=O)c1cnn[nH]1)C(=O)O (single isomer, unassigned) [Example 12a]', 'human NEP (Homo sapiens)', '39.8 to 100 nM'),
  ('NCCC(CO)(C[C@@H](Cc1ccc(-c2cc(Cl)ccc2F)cc1)NC(=O)c1cnn[nH]1)C(=O)O (stereo partly drawn) [Example 17]', 'human NEP (Homo sapiens)', '1.26 to 3.16 nM'),
  ('O=C(N[C@H](Cc1ccc(-c2cc(Cl)ccc2F)cc1)CC1(C(=O)O)CCNC1)c1cnn[nH]1 (single isomer, unassigned) [Example 21a]', 'human NEP (Homo sapiens)', '≤ 1 nM');

Now consider a different molecule.
Quick note, Ki for CCOn1cc(C(=O)N[C@H](Cc2ccc(-c3cc(Cl)ccc3F)cc2)C[C@@](C)(COC)C(=O)O)nn1 [Example 8-8] landed at ≤ 1 nM

====

- testedOn: human NEP (Homo sapiens)
- Construct: 1182-ZN
- assayProtocol: In vitro enzyme inhibition assay, inhibitor potency at human NEP
- conditionSet: recombinant human NEP, fluorogenic peptide substrate 10 μM, 37° C.; values given as ranges
pKi: −log10 of the molar value.
metricName: pKi

INSERT INTO measurements (compound, testedon, metricname, testvalue) VALUES
  ('CCOC[C@](C)(C[C@@H](Cc1ccc(-c2cccc(Cl)c2)cc1)NC(=O)c1noc(=O)[nH]1)C(=O)O [Example 9]', 'human NEP (Homo sapiens)', 'pKi', '≥ 9.00'),
  ('COC[C@](C)(C[C@@H](Cc1ccc(-c2cc(Cl)ccc2F)cc1)NC(=O)c1noc(=O)[nH]1)C(=O)O [Example 7]', 'human NEP (Homo sapiens)', 'pKi', '≥ 9.00'),
  ('O=C(N[C@H](Cc1ccc(-c2cc(Cl)ccc2F)cc1)CC(CO)(CCO)C(=O)O)c1cnn[nH]1 (single isomer, unassigned) [Example 16b]', 'human NEP (Homo sapiens)', 'pKi', '7.50 to 7.90'),
  ('COC[C@](C)(C[C@@H](Cc1ccc(-c2cc(Cl)ccc2F)cc1)NC(=O)c1ncc(C)o1)C(=O)O [Example 8-1]', 'human NEP (Homo sapiens)', 'pKi', '≥ 9.00'),
  ('CCC(C#N)(C[C@@H](Cc1ccc(-c2cc(Cl)ccc2F)cc1)NC(=O)c1cnn[nH]1)C(=O)O (single isomer, unassigned) [Example 23a]', 'human NEP (Homo sapiens)', 'pKi', '≥ 9.00'),
  ('COC[C@](C)(C[C@@H](Cc1ccc(-c2cc(Cl)ccc2F)cc1)NC(=O)c1coc(C2CC2)n1)C(=O)O [Example 8-2]', 'human NEP (Homo sapiens)', 'pKi', '8.50 to 8.90'),
  ('COC[C@](C)(C[C@@H](Cc1ccc(-c2cc(Cl)ccc2F)cc1)NC(=O)c1ncco1)C(=O)O [Example 8-6]', 'human NEP (Homo sapiens)', 'pKi', '≥ 9.00'),
  ('CCOC[C@](C)(C[C@@H](Cc1ccc(-c2cc(Cl)ccc2F)cc1)NC(=O)c1ncco1)C(=O)O [Example 11-1]', 'human NEP (Homo sapiens)', 'pKi', '8.50 to 8.90');

Now consider a different compound.
Response field pKi (human NEP (Homo sapiens)) for item CCOC[C@](C)(C[C@@H](Cc1ccc(-c2cc(Cl)ccc2F)cc1)NC(=O)c1ccc(Cl)cn1)C(=O)O [Example 11-2] : ≥ 9.00

====

- testedOn: human NEP (Homo sapiens)
- Construct: 1182-ZN
- assayProtocol: In vitro enzyme inhibition assay, inhibitor potency at human NEP
- conditionSet: recombinant human NEP, fluorogenic peptide substrate 10 μM, 37° C.; values given as ranges
The following molecules are shown together with reported Ki values.

See these solved cases before continuing.
INSERT INTO assay_data (molecule, testvalue) VALUES
  ('CC(=O)N1CCC(C[C@@H](Cc2ccc(-c3cc(Cl)ccc3F)cc2)NC(=O)c2cnn[nH]2)(C(=O)O)C1 (single isomer, unassigned) [Example 22a]', '≤ 1 nM'),
  ('C[C@@](CN)(C[C@@H](Cc1ccc(-c2cc(Cl)ccc2F)cc1)NC(=O)c1cnn[nH]1)C(=O)O', '≤ 1 nM');

Quick note, Ki for CC(C#N)(C[C@@H](Cc1ccc(-c2cc(Cl)ccc2F)cc1)NC(=O)c1cnn[nH]1)C(=O)O (single isomer, unassigned) [Example 12b] landed at ≤ 1 nM

Quick note, Ki for CCC(CO)(C[C@@H](Cc1ccc(-c2cc(Cl)ccc2F)cc1)NC(=O)c1cnn[nH]1)C(=O)O (single isomer, unassigned) [Example 14a] landed at ≤ 1 nM

Quick note, Ki for CCOC[C@](C)(C[C@@H](Cc1ccc(-c2cc(Cl)ccc2F)cc1)NC(=O)c1n[nH]nc1C)C(=O)O landed at 1.26 to 3.16 nM

Quick note, Ki for O=C(N[C@H](Cc1ccc(-c2cc(Cl)ccc2F)cc1)CC1(C(=O)O)CCOC1)c1cnn[nH]1 (single isomer, unassigned) [Example 20a] landed at ≤ 1 nM
